Origin of measurements: patent US20210253550A1

# EXPERIMENT_NOTES: Solubility of Compound 1.HCl measured gravimetrically in solvents/solvent mixtures
# Format: physicochemical
# CONDITION_SET: organic solvent or mixture, thermodynamic from solid; MeOH, 45° C., slurried 48 h, gravimetric
MEASURE_NAME: solubility at 48 h

MOLECULE | MEASURE_NAME | RESULT
C[C@@H](NC(=O)N1C(=O)[C@H](Cc2ccnc(N)c2)[C@H]1C(=O)O)C1CCCCC1.Cl [Compound 1.HCl] | solubility at 48 h | > 100 mg/mL

* * *

# EXPERIMENT_NOTES: Solubility of Compound 1.HCl measured gravimetrically in solvents/solvent mixtures
# Format: physicochemical
# CONDITION_SET: organic solvent or mixture, thermodynamic from solid; EtOAc, 45° C., slurried 48 h, gravimetric
# Procedure: Solubility of Compound 1.HCl was measured gravimetrically in 12 different solvents and solvent mixtures at 15 and 45° C. About 90 mg of the compound was dispensed in 1 mL of the solvent/solvent mixture and slurried for 48 h. The vials were centrifuged. The supernatant was collected and left for slow evaporation under vacuum at 45° C. The solids obtained after evaporation were used to determine the solubility of Compound 1.HCl and analyzed by XRPD for any new form. […]
MEASURE_NAME: solubility at 48 h (µg/mL)

COMPOUND | MEASURE_NAME | NUMERIC_RESULT
C[C@@H](NC(=O)N1C(=O)[C@H](Cc2ccnc(N)c2)[C@H]1C(=O)O)C1CCCCC1.Cl [Compound 1.HCl] | solubility at 48 h | 2100

* * *

# EXPERIMENT_NOTES: Solubility of Compound 1.HCl measured gravimetrically in solvents/solvent mixtures
# Format: physicochemical
# CONDITION_SET: organic solvent or mixture, thermodynamic from solid; THF, 15° C., slurried 48 h, gravimetric

COMPOUND | solubility at 48 h [µg/mL]
C[C@@H](NC(=O)N1C(=O)[C@H](Cc2ccnc(N)c2)[C@H]1C(=O)O)C1CCCCC1.Cl [Compound 1.HCl] | 1200

* * *

# EXPERIMENT_NOTES: Solubility of Compound 1.HCl measured gravimetrically in solvents/solvent mixtures
# Assay type: physicochemical
# CONDITION_SET: organic solvent or mixture, thermodynamic from solid; Heptane, 45° C., slurried 48 h, gravimetric

MOLECULE | READOUT_UNIT | solubility at 48 h
C[C@@H](NC(=O)N1C(=O)[C@H](Cc2ccnc(N)c2)[C@H]1C(=O)O)C1CCCCC1.Cl [Compound 1.HCl] | µg/mL | 2100
